# System: SW-620 colon
# ASSAY_PROCEDURE: NCI tumour cell line growth inhibition, 48 h
Exercise: for every item that follows, state its recorded TGI.

Recorded result, Nc1nc2ccc(-c3nc4ccc5[nH]ncc5c4c4c3CCC4)cc2s1 , TGI: 7.05 µM

Recorded result, COc1cccc(N2C(=O)CSC2c2cccc(Oc3ccccc3)c2)c1 (stereo not given) , TGI: > 100 µM

Recorded result, NC(=O)CNC(=O)[C@@H]1CC(OCCC(=O)O)CN1C(=O)C1CCCN1C(=O)OCc1ccccc1 (stereo not given in full) , TGI: > 100 µM

Recorded result, c1ccc(-c2csc3c4ccccc4c4ccccc4[n+]23)cc1 , TGI: 17.4 µM

Recorded result, O=C1[C@H](O)[C@@H]2C(O)O[C@H]3[C@@H]2N1C[C@H]3[Si](c1ccccc1)(c1ccccc1)c1ccccc1 (stereo not given in full) , TGI: > 100 µM

Recorded result, N#Cc1c(-c2ccc(Cl)cc2)c2c(nn3c4ccc5ccccc5c4nnc23)[nH]c1=O , TGI: 11.4 µM

Recorded result, S=C1c2ccc(Cl)cc2-n2cnnc2C2CSCN12 (stereo not given) , TGI: > 100 µM

Recorded result, COc1cc(/C=C2\C(=O)N(c3cccc([N+](=O)[O-])c3)C(c3ccccc3)S2(=O)=O)cc(OC)c1OC (stereo not given) , TGI: > 100 µM

Recorded result, COc1ccc(C2=Nn3c(nnc3-c3cc(Cl)cc(Cl)c3Cl)SC2)cc1 , TGI: > 100 µM

Recorded result, O=C(O)c1nc(NCc2nc3cc(Cl)ccc3o2)n[nH]1 , TGI: > 100 µM

====

# System: EKVX NSCLC
# ASSAY_PROCEDURE: NCI tumour cell line growth inhibition, 48 h
REPORTED_METRIC: TGI

Recorded result, COc1cc(/C=C/C(=O)/C=C/c2cc(OC)c3c(c2)OCO3)cc2c1OCO2 , TGI: > 100 µM

Recorded result, C[N+](C)(C)CCC(=O)CC[N+](C)(C)C , TGI: > 100 µM

Recorded result, N#CN1C2CCC1CC(=O)C2 , TGI: > 100 µM

Recorded result, CCC1(O)C(=O)OCc2c1cc1n(c2=O)Cc2cc3ccccc3nc2-1 (stereo not given) , TGI: 0.488 µM

Recorded result, O=C(Nc1ccc(N2C(=O)CSC2c2ccccc2O)cc1)c1ccc(N2C(=O)CSC2c2ccccc2O)cc1 (stereo not given) , TGI: > 100 µM

Recorded result, CN1N=CSC12C(=O)N(c1ccccc1)C(=O)N2c1ccccc1 (stereo not given) , TGI: > 100 µM

Recorded result, Cc1c(/C=N/NC(=O)c2ccccc2O)c(=O)n(-c2ccccc2)n1C , TGI: > 100 µM

Recorded result, C=CCSC1=N/C(=C\c2ccc(Cl)cc2)C(=O)N1CC=C , TGI: 57.3 µM

Recorded result, COc1ccc2nccc(C3=CCC4CCN(C(=O)c5ccccc5)C3C4)c2c1 (stereo not given) , TGI: > 100 µM

Recorded result, CCOC(=O)NC(=O)c1cn(CCN2CCN(C(=O)NCCCCCCNC(=O)N3CCN(CCn4cc(C(=O)NC(=O)OCC)c(=O)[nH]c4=O)CC3)CC2)c(=O)[nH]c1=O , TGI: > 100 µM

====

Exercise: for every item that follows, state its recorded TGI.
# System: M14 melanoma
# ASSAY_PROCEDURE: NCI tumour cell line growth inhibition, 48 h

Recorded result, CNC(C)(C)Cc1ccc(Cl)cc1 , TGI: > 100 µM

Recorded result, N#C[Se]Cc1cc(-c2ccccc2)n(-c2ccc(S(N)(=O)=O)cc2)n1 , TGI: 0.659 µM

Recorded result, C=C(c1ccccc1)C1(O)CCCCC1N (stereo unspecified) , TGI: > 100 µM

Recorded result, O=C(O)c1nc(NCc2nc3cc(Cl)ccc3o2)n[nH]1 , TGI: > 100 µM

Recorded result, C[C@@]1(O)C2CC3CC1(c1ccccc1)CC(/C3=N/O)/C2=N\O (stereo partly specified) , TGI: > 100 µM

Recorded result, CCOC(=O)c1ccc(-n2[nH]nc(C(N)=O)c2=O)cc1 , TGI: > 100 µM

Recorded result, O=c1[nH]cc(NCCCl)c(=O)[nH]1 , TGI: > 100 µM

Recorded result, CC[O-].CC[O-].O=C([CH-]C(=O)c1ccccc1)CCCCCCCCC(=O)[CH-]C(=O)c1ccccc1.[Ti+4] , TGI: > 100 µM

Recorded result, CCn1nc(C)c2c1C(=O)NCC(=O)N2 , TGI: > 100 µM

Recorded result, C[C@@H](NC(C#N)c1ccco1)c1ccccc1 (stereo partly specified) , TGI: > 100 µM

Recorded result, Cc1nc(C(N)=O)c(N)n1CCN1CCN(C(=O)CCCCCCCCCCNC2N=CNc3nc[nH]c32)CC1 (stereo unspecified) , TGI: 82.8 µM
